Reference source: patent US8329653

- target-desc: T1, Human Net 1-FlagM2 (Apotech), recombinant netrin-1 (human, UniProt O95631 25-604)
- T1 construct: also called recombinant netrin-1 (Apotech Corp.); not shown: FlagM2 tag
- assay-comment: ELISA, Aβ1-17 coated at 0.07 µg/ml, various netrin-1 concentrations
quantity-measured: Kd (nM)

[[record]]
binder = "DAEFRHDSGYEVHHQKL (peptide, UniProt P05067 672-688, looked up, domain: Aβ1-17) [Aβ1-17 (the 17 first amino acids of Aβ)]"
measured_value = 30

